experimental.system: UniProtKB P21396
assay.remarks: Binding affinity to MAOA imidazoline binding site in rat brain mitochondrial homogenate assessed as 4-hydroxyquinoline production by spectrophotometry
observation.type: IC50 (µM)

a = c1ccc2oc(C3=NCCN3)cc2c1
b = c1ccc2nc(C3=NCCN3)ccc2c1
// compare: a vs b , metric IC50, want the smaller Respond using the label that marks the chosen record.
b

###

experimental.system: Amine oxidase [flavin-containing] B (Rattus norvegicus, UniProt P19643)
Sequence (P19643 whole entry): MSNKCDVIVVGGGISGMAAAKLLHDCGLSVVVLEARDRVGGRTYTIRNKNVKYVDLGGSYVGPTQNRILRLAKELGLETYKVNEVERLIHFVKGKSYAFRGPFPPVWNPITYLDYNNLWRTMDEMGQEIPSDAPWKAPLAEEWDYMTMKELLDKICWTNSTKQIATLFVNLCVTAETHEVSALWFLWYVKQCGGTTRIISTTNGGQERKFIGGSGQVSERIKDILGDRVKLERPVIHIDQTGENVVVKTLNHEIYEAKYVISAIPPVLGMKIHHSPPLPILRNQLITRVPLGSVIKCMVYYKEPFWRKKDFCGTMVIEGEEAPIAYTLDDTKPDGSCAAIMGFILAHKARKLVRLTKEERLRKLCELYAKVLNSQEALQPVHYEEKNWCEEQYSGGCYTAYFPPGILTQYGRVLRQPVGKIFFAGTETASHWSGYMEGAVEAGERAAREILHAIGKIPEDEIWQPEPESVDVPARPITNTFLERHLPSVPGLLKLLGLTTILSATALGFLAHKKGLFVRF
assay.remarks: Binding affinity to MAOB imidazoline binding site in rat brain mitochondrial homogenate assessed as 4-hydroxyquinoline production by spectrophotometry
pIC50: −log10 of the molar value.
observation.type: pIC50

> print(dat)
            compound.smiles  readout.value
1   c1ccc2oc(C3=NCCN3)cc2c1           5.04
2  c1ccc2nc(C3=NCCN3)ccc2c1           4.88

###

experimental.system: Amine oxidase [flavin-containing] A (Rattus norvegicus, UniProt P21396)
Sequence (P21396 whole entry): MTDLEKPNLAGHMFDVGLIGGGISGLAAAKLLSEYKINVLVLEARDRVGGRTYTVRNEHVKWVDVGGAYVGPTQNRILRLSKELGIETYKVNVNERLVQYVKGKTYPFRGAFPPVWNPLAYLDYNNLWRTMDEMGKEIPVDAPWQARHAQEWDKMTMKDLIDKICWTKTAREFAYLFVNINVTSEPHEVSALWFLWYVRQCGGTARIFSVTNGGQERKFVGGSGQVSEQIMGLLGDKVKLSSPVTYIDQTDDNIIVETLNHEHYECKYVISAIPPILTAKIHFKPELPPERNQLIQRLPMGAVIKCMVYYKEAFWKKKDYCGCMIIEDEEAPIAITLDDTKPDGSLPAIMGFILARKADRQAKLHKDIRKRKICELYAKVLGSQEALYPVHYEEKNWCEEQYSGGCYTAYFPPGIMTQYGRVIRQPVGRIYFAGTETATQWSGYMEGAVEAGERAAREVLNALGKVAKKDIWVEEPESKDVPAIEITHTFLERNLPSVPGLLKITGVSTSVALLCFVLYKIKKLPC
assay.remarks: Binding affinity to MAOA imidazoline binding site in rat brain mitochondrial homogenate assessed as 4-hydroxyquinoline production by spectrophotometry
observation.type: Ki (µM)

> print(dat)
              compound.smiles  readout.value
1  COc1cc(C2=NCCN2)cc(OC)c1OC            114

P = COc1ccc(C2=NCCN2)cc1
Q = Cc1ccc(C2=NCCN2)cc1
Form field 'greater Ki' accepts P or Q ; which applies? Respond using the label that marks the chosen record.
Q
(Q: 102 µM, P: 15.8 µM)

P = c1ccc2oc(C3=NCCN3)cc2c1
Q = COc1ccc(C2=NCCN2)cc1OC
R = O=[N+]([O-])c1ccc(C2=NCCN2)cc1
S = c1ccc2nc(C3=NCCN3)ccc2c1
Hey, can you sort those compounds up there by Ki, smallest first? Output spec: labels arranged per the requested ranking.
S, Q, P, R
(S: 4.86 µM, Q: 13.6 µM, P: 24.9 µM, R: 181 µM)

A = c1ccc(C2=NCCN2)cc1
B = c1ccc2cc(C3=NCCN3)ccc2c1
Form field 'greater Ki' accepts A or B ; which applies? Respond using the label that marks the chosen record.
A
(A: 28.8 µM, B: 13.9 µM)

###

Organism: Rattus norvegicus
assay.remarks: Selectivity index, ratio of Ki rat for MAOA to Ki for rat MAOB
observation.type: Ratio Ki

Known Ratio Ki results, listed for orientation:
> print(dat)
                  compound.smiles  readout.value
1              c1ccc(C2=NCCN2)nc1         > 39.5
2              Clc1ccccc1C1=NCCN1         > 40.7
3  O=[N+]([O-])c1cccc(C2=NCCN2)c1         > 51.9

Now for a further compound.
Entry `O=[N+]([O-])c1ccc(C2=NCCN2)cc1` : reported Ratio Ki = ?
< 0.181

###

experimental.system: Amine oxidase [flavin-containing] A (Rattus norvegicus, UniProt P21396)
assay.remarks: Binding affinity to MAOA imidazoline binding site in rat brain mitochondrial homogenate assessed as 4-hydroxyquinoline production by spectrophotometry
observation.type: Ki (µM)

> print(dat)
                    compound.smiles  readout.value
1  O=C(Oc1ccc(C2=NCCN2)cc1)c1ccccc1           12.8

1 = Clc1ccc(C2=NCCN2)c(Cl)c1
2 = Clc1ccc(C2=NCCN2)cc1
Form field 'greater Ki' accepts 1 or 2 ; which applies? Respond using the label that marks the chosen record.
2
(2: 166 µM, 1: 28.8 µM)
